Each entry below carries its recorded IC50.
# EXPERIMENTAL_SYSTEM: ZAP-70 (Homo sapiens)
# Construct: endogenous in cells; host or cells: cell lysate
# MEASUREMENT_DESCRIPTION: ZAP-70 kinobeads assay
# Format: binding
# CONDITION_LABEL: cell lysate
Where a name gives a salt, the structure may show the parent alone.

Solved entries (count: 5):
COc1ccc(Nc2nc(Nc3cc(OCCO)ccc3C)ncc2Cl)c(NS(C)(=O)=O)c1 :: ≤ 100 nM
CS(=O)(=O)Nc1ccccc1Nc1nc(Nc2cc(F)ccc2F)ncc1F :: 1000 to 10000 nM
COc1ccc(Nc2nc(Nc3cc(F)c(OC)cc3OC)ncc2Cl)c(NS(C)(=O)=O)c1 [Example 38, hydrochloride] :: 100 to 1000 nM
COc1ccc(Nc2nc(Nc3cccc(C)c3C)ncc2Cl)c(NS(C)(=O)=O)c1 :: 100 to 1000 nM
COc1ccc(Nc2nc(Nc3cc(OC)c(OC)cc3Cl)ncc2Cl)c(NS(C)(=O)=O)c1 :: 100 to 1000 nM

IC50 on ZAP-70 (Homo sapiens) for COc1ccc(Nc2nc(Nc3nc(OC)ccc3Cl)ncc2Cl)c(NS(C)(=O)=O)c1 is 1000 to 10000 nM

IC50 on ZAP-70 (Homo sapiens) for COc1ccc(Nc2nc(Nc3cccc(OCC(=O)N4CCC4)c3C)ncc2Cl)c(NS(C)(=O)=O)c1 is ≤ 100 nM

IC50 on ZAP-70 (Homo sapiens) for COc1ccc(Nc2nc(Nc3cc(OC)c(F)cc3F)ncc2Cl)c(NS(C)(=O)=O)c1 [Example 58, hydrochloride] is 100 to 1000 nM

---

# EXPERIMENTAL_SYSTEM: ZAP-70 (Homo sapiens, UniProt P43403)
# Construct: endogenous in cells
# Sequence (P43403 whole entry): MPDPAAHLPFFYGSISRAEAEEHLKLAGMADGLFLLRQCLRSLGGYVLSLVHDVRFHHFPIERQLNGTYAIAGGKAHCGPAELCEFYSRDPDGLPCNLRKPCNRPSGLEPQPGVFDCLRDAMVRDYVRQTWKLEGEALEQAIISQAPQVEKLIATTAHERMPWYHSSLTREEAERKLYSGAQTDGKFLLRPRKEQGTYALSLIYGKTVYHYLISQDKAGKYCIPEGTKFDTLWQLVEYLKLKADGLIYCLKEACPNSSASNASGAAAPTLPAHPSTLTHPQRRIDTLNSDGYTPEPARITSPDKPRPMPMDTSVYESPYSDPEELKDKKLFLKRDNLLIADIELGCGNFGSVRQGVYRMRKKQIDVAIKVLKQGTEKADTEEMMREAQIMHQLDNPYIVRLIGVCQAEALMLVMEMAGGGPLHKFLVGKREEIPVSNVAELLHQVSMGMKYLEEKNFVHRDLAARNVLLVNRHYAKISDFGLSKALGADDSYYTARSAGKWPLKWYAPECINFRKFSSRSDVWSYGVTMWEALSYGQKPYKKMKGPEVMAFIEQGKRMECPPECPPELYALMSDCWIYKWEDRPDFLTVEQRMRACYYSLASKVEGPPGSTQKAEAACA
# MEASUREMENT_DESCRIPTION: ZAP-70 kinobeads assay
# CONDITION_LABEL: cell lysate
pIC50: −log10 of the molar value. Structures can show the parent of a compound that is named as a salt.
Each entry below carries its recorded pIC50.

Solved entries (count: 3):
CS(=O)(=O)Nc1ccccc1Nc1nc(Nc2ccccc2O)ncc1Br [Example 20, hydrochloride] :: 6.00 to 7.00
COc1ccc(Nc2nc(Nc3cc(OCCN)ccc3OC)ncc2Cl)c(NS(C)(=O)=O)c1 [Example 67, hydrochloride] :: 6.00 to 7.00
COc1ccc(Nc2nc(Nc3cc(OC)ccc3OC)ncc2Cl)c(NS(C)(=O)=O)c1 [Example 22] :: 6.00 to 7.00

For record COc1cc(OC)c(OC)cc1Nc1ncc(Br)c(Nc2ccccc2NS(C)(=O)=O)n1 [Example 31] the listed pIC50 is 6.00 to 7.00

For record COc1ccc(Nc2nc(Nc3ccccc3F)ncc2Cl)c(NS(C)(=O)=O)c1 [Example 48] the listed pIC50 is 6.00 to 7.00

For record COc1ccc(Nc2nc(Nc3cccc(CCCO)c3C)ncc2Cl)c(NS(C)(=O)=O)c1 [Example 97] the listed pIC50 is ≥ 7.00

For record COc1cc(OCCCN2CCCCC2)ccc1Nc1ncc(Br)c(Nc2ccccc2NS(C)(=O)=O)n1 [Example 28] the listed pIC50 is ≥ 7.00

For record COc1ccc(Nc2nc(Nc3cc(OC)cc(CO)c3OC)ncc2Cl)c(NS(C)(=O)=O)c1 [Example 96] the listed pIC50 is 6.00 to 7.00

---

Each entry below carries its recorded IC50.
# EXPERIMENTAL_SYSTEM: ZAP-70 (Homo sapiens, UniProt P43403)
# Construct: endogenous in cells
# MEASUREMENT_DESCRIPTION: ZAP-70 kinobeads assay
# CONDITION_LABEL: cell lysate
Structures can show the parent of a compound that is named as a salt.

Solved entries (count: 5):
COc1ccc(Nc2nc(Nc3cccc(F)c3F)ncc2Cl)c(NS(C)(=O)=O)c1 [Example 60, hydrochloride] :: 1000 to 10000 nM
COc1ccc(Nc2ncc(Cl)c(Nc3ccc(OC)cc3NS(C)(=O)=O)n2)c(C)c1 :: 100 to 1000 nM
COc1ccc(Nc2nc(Nc3ccc(OCC(N)=O)cc3OC)ncc2Cl)c(NS(C)(=O)=O)c1 :: ≤ 100 nM
COc1ccc(Nc2nc(Nc3cc(OC)c(OCCO)cc3OC)ncc2Cl)c(NS(C)(=O)=O)c1 :: ≤ 100 nM
COc1ccc(Nc2nc(Nc3ccc(OC)c(OC)c3OC)ncc2Cl)c(NS(C)(=O)=O)c1 [Example 32, hydrochloride] :: 100 to 1000 nM

For record COc1ccc(Nc2nc(Nc3ccc(OCCO)cc3OC)ncc2Cl)c(NS(C)(=O)=O)c1 the listed IC50 is ≤ 100 nM

For record COc1ccc(Nc2nc(Nc3ccc(OCCO)cc3C)ncc2Cl)c(NS(C)(=O)=O)c1 the listed IC50 is ≤ 100 nM

---

Each entry below carries its recorded pIC50.
# EXPERIMENTAL_SYSTEM: ZAP-70 (Homo sapiens)
# Construct: endogenous in cells
# MEASUREMENT_DESCRIPTION: ZAP-70 kinobeads assay
# CONDITION_LABEL: cell lysate
pIC50: −log10 of the molar value.

COc1ccc(OC)c(Nc2ncc(Br)c(Nc3ccccc3NS(C)(=O)=O)n2)c1 :: 6.00 to 7.00
COc1ccc(Nc2nc(Nc3ccc(OCC(N)=O)cc3C)ncc2Cl)c(NS(C)(=O)=O)c1 :: ≥ 7.00
COc1ccc(Nc2nc(Nc3cc(OC)c(OC)cc3OC)ncc2Cl)c(NS(C)(=O)=O)c1 :: 6.00 to 7.00

For record COc1ccc(Nc2nc(Nc3ccc(OCCO)cc3F)ncc2Cl)c(NS(C)(=O)=O)c1 the listed pIC50 is 6.00 to 7.00

For record CS(=O)(=O)Nc1ccccc1Nc1nc(Nc2ccccc2OC(F)F)ncc1Br the listed pIC50 is 5.00 to 6.00

For record COc1ccc(Nc2nc(Nc3cc(OCCO)ccc3F)ncc2Cl)c(NS(C)(=O)=O)c1 the listed pIC50 is 6.00 to 7.00

For record COc1ccc(Nc2nc(Nc3cc(OCCO)ccc3OC)ncc2Br)c(NS(C)(=O)=O)c1 the listed pIC50 is ≥ 7.00

---

# EXPERIMENTAL_SYSTEM: ZAP-70 (Homo sapiens)
# Construct: endogenous in cells
# MEASUREMENT_DESCRIPTION: ZAP-70 kinobeads assay
# CONDITION_LABEL: cell lysate
pIC50: −log10 of the molar value. Where a name gives a salt, the structure may show the parent alone.
Each entry below carries its recorded pIC50.

COc1ccc(Nc2nc(Nc3cc(OC)c(CC(N)=O)cc3OC)ncc2Cl)c(NS(C)(=O)=O)c1 :: 6.00 to 7.00
COc1ccc(Nc2nc(Nc3ccccc3OC)ncc2Cl)c(NS(C)(=O)=O)c1 [Example 51, hydrochloride] :: 6.00 to 7.00
COc1ccc(Nc2nc(Nc3ccc(F)cc3OC)ncc2Cl)c(NS(C)(=O)=O)c1 :: 6.00 to 7.00
COc1ccc(Nc2nc(Nc3ccc(C)nc3C)ncc2Cl)c(NS(C)(=O)=O)c1 :: ≥ 7.00
COc1ccc(OCCO)cc1Nc1ncc(Cl)c(Nc2cccc(C)c2NS(C)(=O)=O)n1 :: 6.00 to 7.00
COc1ccc(Nc2nc(Nc3cccc(OC)c3C)ncc2Cl)c(NS(C)(=O)=O)c1 :: 6.00 to 7.00

For record COc1ccc(Nc2ncc(Br)c(Nc3ccccc3NS(C)(=O)=O)n2)c(OC)c1 the listed pIC50 is 6.00 to 7.00

For record COc1ccc(Nc2nc(Nc3cc(OC)c(C)cc3OC)ncc2Cl)c(NS(C)(=O)=O)c1 the listed pIC50 is 6.00 to 7.00

For record COc1ccc(Nc2nc(Nc3cnc(C)cc3C)ncc2Cl)c(NS(C)(=O)=O)c1 the listed pIC50 is ≥ 7.00

For record COc1ccc(Nc2nc(Nc3cccc(OCCO)c3C)ncc2Cl)c(NS(C)(=O)=O)c1 the listed pIC50 is ≥ 7.00

For record COc1ccc(Nc2nc(Nc3ccc(OCCCN4CCCCC4)cc3OC)ncc2Cl)c(NS(C)(=O)=O)c1 the listed pIC50 is ≥ 7.00

For record COc1ccc(Nc2nc(Nc3cc4c(cc3OC)OCCO4)ncc2Cl)c(NS(C)(=O)=O)c1 the listed pIC50 is 6.00 to 7.00

For record COc1ccc(Nc2nc(Nc3ccncc3OC)ncc2Cl)c(NS(C)(=O)=O)c1 the listed pIC50 is 6.00 to 7.00

For record COc1ccc(Nc2nc(Nc3cccnc3C)ncc2Cl)c(NS(C)(=O)=O)c1 the listed pIC50 is 6.00 to 7.00

For record COc1ccc(Nc2nc(Nc3cc(OC)c(CCO)cc3OC)ncc2Cl)c(NS(C)(=O)=O)c1 the listed pIC50 is 6.00 to 7.00

---

# EXPERIMENTAL_SYSTEM: ZAP-70 (Homo sapiens, UniProt P43403)
# Construct: endogenous in cells
# MEASUREMENT_DESCRIPTION: ZAP-70 kinobeads assay
# CONDITION_LABEL: cell lysate
Each entry below carries its recorded IC50.

For record COc1ccc(Nc2nc(Nc3cc(OC)ccc3OC)ncc2F)c(NS(C)(=O)=O)c1 the listed IC50 is 1000 to 10000 nM
